Let's look at some molecules and their measured selectivity ratio at 72 h.
Test: MTT cytotoxicity assay, SNU-1
Assay type: cell-based, human
Conditions: human, CC50 of WI-38 divided by CC50 of SNU-1 (Table 1); read-out: SCI (selective cytotoxicity index)
No unit in the answer, only the number.

Molecule	selectivity ratio at 72 h
CC1COc2c(ccc(F)c2F)N1C(=O)CCCCCCCCCCNc1ncnc2[nH]cnc12 (stereo not shown)	3
CC1COc2c(ccc(F)c2F)N1C(=O)CCCCCCCNc1ncnc2[nH]cnc12 (stereo not shown)	7.1
CC1COc2c(ccc(F)c2F)N1C(=O)CCCCCCCCCCCNc1ncnc2[nH]cnc12 (stereo not shown)	12

Tell me the measured selectivity ratio at 72 h of CC1COc2c(ccc(F)c2F)N1C(=O)CCCCCCCCCCCCCCNc1ncnc2[nH]cnc12 (stereo not shown) , please. 5.8

###

Experiment: MTT cytotoxicity assay, HepG2
Type: cell-based, human
Details: human; CC50 of WI-38 divided by CC50 of HepG2; read-out: SCI (selective cytotoxicity index)
Measure Name: selectivity ratio at 72 h

Molecule	Assay Result
CC1COc2c(ccc(F)c2F)N1C(=O)CCCCCCCCCCCNc1ncnc2[nH]cnc12 (stereo not shown) [Compound 1e]	14
CC1COc2c(ccc(F)c2F)N1C(=O)CCCCCCCCCCNc1ncnc2[nH]cnc12 (stereo not shown) [Compound 1d]	2.5
CC1COc2c(ccc(F)c2F)N1C(=O)CCCCCCCNc1ncnc2[nH]cnc12 (stereo not shown) [Compound 1c]	5.9

For the molecule shown here, CC1COc2c(ccc(F)c2F)N1C(=O)CCCCCCCCCCCCCCNc1ncnc2[nH]cnc12 (stereo not shown) [Compound 1f] , give the reported selectivity ratio at 72 h. 3.6

###

Listing of recorded selectivity ratio at 72 h by entry.
Assay: MTT cytotoxicity assay, SK-BR-3
Assay type: cell-based, human
Conditions: human, CC50 of WI-38 divided by CC50 of SK-BR-3 (Table 1); read-out: SCI (selective cytotoxicity index)
Provide a numeric answer; units are not to be included.

Compound	Assay Result
CC1COc2c(ccc(F)c2F)N1C(=O)CCCCCCCCCCCNc1ncnc2[nH]cnc12 (stereo not shown)	0.83
CC1COc2c(ccc(F)c2F)N1C(=O)CCCCCCCNc1ncnc2[nH]cnc12 (stereo not shown)	0.67
CC1COc2c(ccc(F)c2F)N1C(=O)CCCCCCCCCCCCCCNc1ncnc2[nH]cnc12 (stereo not shown)	0.35

Next item in the queue.
Requested read-out: selectivity ratio at 72 h. Entry: CC1COc2c(ccc(F)c2F)N1C(=O)CCCCCCCCCCNc1ncnc2[nH]cnc12 (stereo not shown) 0.28

###

Assay: MTT cytotoxicity assay, WI-38 normal cells
Format: cell-based
Details: human, WI-38 lung fibroblasts (normal cells), WI-38, 72 h incubation, MTT, n = 3 (Table 3)
Listing of recorded CC50 at 72 h by entry.
I only need the number, in µM, no unit after it.

Below: 4 molecules and their reported CC50 at 72 h.
Molecule	Assay Result
CC1COc2c(ccc(F)c2F)N1C(=O)CCCCCCCCCCNc1ncnc2[nH]cnc12 (centres unmarked)	21
COc1cccc2c1C(=O)c1c(O)c3c(c(O)c1C2=O)C[C@@](O)(C(=O)CO)C[C@@H]3O[C@H]1C[C@H](N)[C@H](O)[C@H](C)O1 [Dox, Doxorubicin, reference compound]	0.23
CC(=O)OCCOCn1cnc2c(NCCCCCCCCCCC(=O)N3c4ccc(F)c(F)c4OCC3C)ncnc21 (centres unmarked)	30
CC1COc2c(ccc(F)c2F)N1C(=O)CCCCCCCCCCNc1ncnc2c1ncn2COCCO (centres unmarked)	14

Read the next record carefully.
Sample CC1COc2c(ccc(F)c2F)N1C(=O)CCCCCNc1ncnc2[nH]cnc12 (centres unmarked) — what was its CC50 at 72 h? 98

###

Assay: MTT cytotoxicity assay, WI-38 normal cells
Type: cell-based
Settings: human, WI-38 lung fibroblasts (normal cells); WI-38, 1 × 10^–4 M, mean ± SD (n = 3); read-out: Cell viability
Measure Name: viability at 72 h (%)
Please reply with the bare figure in % and do not write the unit itself.

Example entries and their recorded answers appear below.
Compound	Measure Name	Assay Result
CC1COc2c(ccc(F)c2F)N1C(=O)CCCCCCCCCCCNc1ncnc2[nH]cnc12 (stereo not drawn)	viability at 72 h	22
CC1COc2c(ccc(F)c2F)N1C(=O)CCCCCCCCCCNc1ncnc2[nH]cnc12 (stereo not drawn)	viability at 72 h	21

Turning now to a further record.
What viability at 72 h value was documented for this compound, CC1COc2c(ccc(F)c2F)N1C(=O)CCCCCCCNc1ncnc2[nH]cnc12 (stereo not drawn) ? 21

###

Below: a set of entries, each annotated with reported selectivity ratio at 72 h.
Assay: MTT cytotoxicity assay, CT-26
Type: cell-based, murine
Conditions: mouse (CT-26) and human (WI-38); CC50 of WI-38 divided by CC50 of CT-26; read-out: SCI (selective cytotoxicity index)
// return a plain number; no unit text

Use the examples below as a reference point.
Compound	selectivity ratio at 72 h
CC1COc2c(ccc(F)c2F)N1C(=O)CCCCCCCCCCCNc1ncnc2[nH]cnc12 (stereo not shown)	21
CC1COc2c(ccc(F)c2F)N1C(=O)CCCCCCCNc1ncnc2[nH]cnc12 (stereo not shown)	2.6
CC1COc2c(ccc(F)c2F)N1C(=O)CCCCCCCCCCNc1ncnc2[nH]cnc12 (stereo not shown)	1.1

Could you share which selectivity ratio at 72 h value was measured for CC1COc2c(ccc(F)c2F)N1C(=O)CCCCCCCCCCCCCCNc1ncnc2[nH]cnc12 (stereo not shown) ? 12

###

Test system: A549 human non-small-cell lung carcinoma
Assay: MTT cytotoxicity assay, A549
Assay type: cell-based
Details: Homo sapiens, A549, 72 h, A549, 72 h incubation, MTT, n = 3 (Table 1)
Measure Name: CC50 (µM)
Entry rule: numbers only, all in µM.

Molecule	CC50 [µM]
CC1COc2c(ccc(F)c2F)N1C(=O)CCCCCCCCCCCNc1ncnc2[nH]cnc12 (stereo not shown)	75
CC1COc2c(ccc(F)c2F)N1C(=O)CCCCCCCNc1ncnc2[nH]cnc12 (stereo not shown)	43
CC1COc2c(ccc(F)c2F)N1C(=O)CCCCCCCCCCNc1ncnc2[nH]cnc12 (stereo not shown)	43

Next molecule, CC50 to be filled in.
I would be grateful if you could share the reported CC50 for CC1COc2c(ccc(F)c2F)N1C(=O)CCCCCCCCCCCCCCNc1ncnc2[nH]cnc12 (stereo not shown) . 60

###

Attribute: melting point

A selection of reference data follows.
Compound	Measure Name	Assay Result
O=C(O)CCCCCCCCCCCCCCNc1ncnc2nc[nH]c12	melting point	198 to 199 °C
CC1COc2c(ccc(F)c2F)N1C(=O)CCCCCCCCC(=O)N1c2ccc(F)c(F)c2OCC1C (stereo not shown) (hydrate or solvate)	melting point	103 to 104 °C
C[C@H]1COc2c(ccc(F)c2F)N1C(=O)CCCCCCCCC(=O)N1c2ccc(F)c(F)c2OC[C@@H]1C (hydrate or solvate) [(S)-9]	melting point	41 to 42 °C

Consider now this further compound.
Entry O=C(O)CCCCCCCCCCNc1ncnc2nc[nH]c12 : reported melting point = ? 172 to 174 °C

###

Assay: MTT cytotoxicity assay, A549
Assay type: cell-based, human
Settings: human, CC50 of WI-38 divided by CC50 of A549 (Table 3); read-out: SCI (selective cytotoxicity index)
# selectivity ratio at 72 h listing for each entry below
Write the number on its own, no unit after it.

The following compounds have reported results that may help.
Compound	selectivity ratio at 72 h
CC(=O)OCCOCn1cnc2c(NCCCCCCCCCCC(=O)N3c4ccc(F)c(F)c4OCC3C)ncnc21 (centres unmarked) [Compound 6]	2
CC1COc2c(ccc(F)c2F)N1C(=O)CCCCCNc1ncnc2[nH]cnc12 (centres unmarked) [Compound 1b]	1.8
CC1COc2c(ccc(F)c2F)N1C(=O)CCCCCCCCCCNc1ncnc2c1ncn2COCCO (centres unmarked) [Compound 7]	1.5
CC1COc2c(ccc(F)c2F)N1C(=O)CCCCCCCCCCNc1ncnc2[nH]cnc12 (centres unmarked) [Compound 1d]	1

Consider now this further compound.
# lookup: selectivity ratio at 72 h of COc1cccc2c1C(=O)c1c(O)c3c(c(O)c1C2=O)C[C@@](O)(C(=O)CO)C[C@@H]3O[C@H]1C[C@H](N)[C@H](O)[C@H](C)O1 [Dox, Doxorubicin, reference compound] 1

###

This section presents molecules with their documented CC50 values.
Tested on: SNU-1 human gastric carcinoma
Experiment: MTT cytotoxicity assay, SNU-1
Format: cell-based
Details: Homo sapiens, SNU1, 72 h, SNU-1, 72 h incubation, MTT, n = 3 (Table 1)
Respond numerically; units are µM and should not be typed.

Known results for molecules:
Molecule	Target Of Assay	Assay Result
CC1COc2c(ccc(F)c2F)N1C(=O)CCCCCCCCCCNc1ncnc2[nH]cnc12 (stereo not shown) [Compound 1d]	SNU-1 human gastric carcinoma	7
CC1COc2c(ccc(F)c2F)N1C(=O)CCCCCCCCCCCCCCNc1ncnc2[nH]cnc12 (stereo not shown) [Compound 1f]	SNU-1 human gastric carcinoma	6
CC1COc2c(ccc(F)c2F)N1C(=O)CCCCCCCCCCCNc1ncnc2[nH]cnc12 (stereo not shown) [Compound 1e]	SNU-1 human gastric carcinoma	6

Please turn your attention to the following entry.
Looking for the measured CC50 of CC1COc2c(ccc(F)c2F)N1C(=O)CCCCCCCNc1ncnc2[nH]cnc12 (stereo not shown) [Compound 1c] , can you help? 7
